Experiment Description: chemical genetic growth profiling, strain panel (AID 1159580);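 further: tested at 20 µM; growth read once vehicle control cultures reached saturation at 30 °C; 1 = growth at the plate median or of vehicle wells; lower values mean less growth of the strain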
Measurement Parameters: S. cerevisiae deletion strains, growth OD, locus YHR013C, strain ard1
The whole screen tested about 5,500 compounds, of which about 2,000 (36%) were called active. About 18% were inconclusive and are not listed. No stated cut-off is given here; in the data, active means normalized growth mostly below about 0.91 (no sharp cut-off); inconclusive means no clear call, values can overlap the other calls; inactive means mostly above about 0.92. The list shows a part of the results.
Outcomes: 1 (yes) (active), 0 (no) (inactive)

1) C=C[C@H]1CN2CC[C@H]1C[C@H]2[C@H](O)c1ccnc2ccccc12	0 (no)
2) CC(=O)OC[C@@]1(O)C[C@@]23CCC4c5ccoc5CC[C@]4(C)C2CC[C@@H]1C3 (stereo partly drawn)	1 (yes)
3) CC[C@H]1OC(=O)[C@H](C)[C@@H](O[C@H]2C[C@@](C)(OC)[C@@H](O)[C@H](C)O2)[C@H](C)[C@@H](O[C@@H]2O[C@H](C)C[C@H](N(C)C)[C@H]2O)[C@](C)(O)C[C@@H](C)/C(=N/OCOCCOC)[C@H](C)[C@@H](O)[C@]1(C)O	0 (no)

---

Experiment Description: chemical genetic growth profiling, strain panel (AID 1159580)
Measurement Parameters: S. cerevisiae deletion strains, growth OD, locus YAL040C, strain CLN3
Among all 5,500 compounds or so, about 2,000 (36%) were called active. Roughly 18% stayed inconclusive and do not appear here. No stated cut-off is given here; in the data, active means normalized growth mostly below about 0.91 (no sharp cut-off); inconclusive means no clear call, values can overlap the other calls; inactive means mostly above about 0.92. The list shows a part of the results.
Outcomes: class 1 (active), class 0 (inactive)

1) CC(C)[C@@H](CO)Nc1nc(Nc2cccc(Cl)c2)c2ncn(C(C)C)c2n1	class 0
2) O=Nc1c(-c2c(O)[nH]c3ccccc23)[nH]c2ccccc12	class 1
3) O=C(CCc1ccc(O)cc1)c1c(O)cc(O)cc1O	class 0
4) Nc1ccc2c3c(cccc13)C(=O)NC2=O	class 0
5) COc1cc2ncnc(Nc3cccc(Cl)c3)c2cc1OC	class 0
6) O=C(Cc1ccc(Cl)c(Cl)c1)N1CCCCC1CN1CCCC1 (centres undefined)	class 0
7) N[C@@H](Cc1cnc[nH]1)C(=O)O	class 0
8) COc1ccc(CNC(=O)/C=C/c2ccc3[nH]cc(CCN(C)C)c3c2)cc1	class 0
9) NC1CCc2cc(O)c(O)cc2C1 (centres undefined)	class 0
10) CC1=C(C)C(=O)C(CCCCC#CCCCC#CCO)=C(C)C1=O	class 0
11) OC[C@H]1O[C@@H](n2cnc3c(NC4CCCCC4)ncnc32)[C@H](O)[C@@H]1O	class 0
12) COC(=O)[C@H](NC(=O)c1cc(-c2ccccc2)nc2ccccc12)c1ccccc1	class 0
13) Oc1cc2c(cc1O)[C@H]1c3ccccc3CN[C@@H]1CC2	class 0
14) CC(C)NC(C)Cc1ccc(I)cc1 (centres undefined)	class 0

---

Experiment Description: chemical genetic growth profiling, strain panel (AID 1159580);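 further: tested at 20 µM; growth read once vehicle control cultures reached saturation at 30 °C; 1 = growth at the plate median or of vehicle wells; lower values mean less growth of the strain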
Measurement Parameters: S. cerevisiae deletion strains, growth OD, locus YLR370C, strain arc18, hits give low values
In all, about 5,500 compounds went through this assay and about 2,000 (36%) were called active. About 18% were inconclusive and are not listed. Some of the results follow.
Note to self: use 1 only for normalized growth readings below 1; a reading exactly at 1 still gets 0.

1. CC(C)CCCC(C)N (stereo unspecified)	0
2. CN1CCCCC1c1ccc(-c2cccnc2)nc1 (stereo unspecified)	1
3. CC(C)C1CCC(C(=O)N[C@@H](Cc2ccccc2)C(=O)O)CC1 (stereo partly specified)	1

---

Experiment Description: chemical genetic growth profiling, strain panel (AID 1159580);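 further: tested at 20 µM; growth read once vehicle control cultures reached saturation at 30 °C; 1 = growth at the plate median or of vehicle wells; lower values mean less growth of the strain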
Measurement Parameters: S. cerevisiae deletion strains, growth OD, locus YNL298W, strain CLA4
Among all 5,500 compounds or so, about 2,000 (36%) were called active. Roughly 18% stayed inconclusive and do not appear here. Cut-off read from the data, not from the text of the source: active = normalized growth mostly below about 0.91 (no sharp cut-off); inconclusive = no clear call, values can overlap the other calls; inactive = mostly above about 0.92. This is one part of the list.
Labels: true for active, false for inactive

1) COc1cc(Cc2cnc(N)nc2N)cc(OC)c1OC	false
2) COC(=O)c1cc(OC)c(=O)c2c(OC)c(OC)ccc2c1	false
3) ClC1C(Cl)C(Cl)C(Cl)C(Cl)C1Cl (stereo not given)	false
4) Cc1c(NC(C)C)c(=O)n(-c2ccccc2)n1C	false
5) CC(C)OC(=O)Nc1cccc(Cl)c1	false
6) C[N+]12CCC(CC1)C(OC(=O)C(O)(c1ccccc1)c1ccccc1)C2 (stereo not given)	false
7) NC(=NCCCCCCN=C(N)N=C(N)Nc1ccc(Cl)cc1)N=C(N)Nc1ccc(Cl)cc1	true
8) COC(=O)C[C@H]1C(C)(C)[C@@H](OC(C)=O)[C@@H]2CC3=C4CC(=O)O[C@@H](c5ccoc5)[C@]4(C)CCC3[C@@]1(C)C2=O (stereo not given in full)	false
9) Cn1c(=O)c2c(ncn2C)n(C)c1=O	false
10) CN(C)CCC[C@@]1(c2ccc(F)cc2)OCc2cc(C#N)ccc21	false
11) CC(C)N1C(=O)c2ccccc2NS1(=O)=O	false
12) O=C1NS(=O)(=O)c2ccccc21	false
13) Cn1cnc2c1c(=O)[nH]c(=O)n2C	false
14) CCCC(=O)Nc1ccc(OCC(O)CNC(C)C)c(C(C)=O)c1 (stereo not given)	false
15) CC(=O)O[C@@H]1C2CC[C@@H]3C1(C[C@@H](O)[C@@]1(O)[C@@H](C[C@H](O)C1(C)C)[C@]3(C)O)C[C@@]2(C)O (stereo not given in full)	false
16) CC(=O)Nc1c(I)cc(I)c(C(=O)O)c1I	false
17) COc1cc2cccc(OC)c(=O)c2c(OC)c1OC	false
18) O=C1C=C(O)c2ccccc2C1=O	false
19) C=C(C)C1Cc2c(ccc3c(=O)c4c(oc23)COc2cc(OC)c(OC)cc2-4)O1 (stereo not given)	false
20) O=C(N[C@@H](CO)[C@H](O)c1ccc([N+](=O)[O-])cc1)C(Cl)Cl	false
21) CC(=O)OC1CCC2(O)CC1(C)CCC1C2CC1(C)C (stereo not given)	false
22) CN1C(=O)CC[C@H]1c1cccnc1	false
23) COC(=O)CC1C(C)(C)C(=O)C2CC3(O)C4=CC(=O)OC(c5ccoc5)C4(C)CCC3C1(C)C2=O (stereo not given)	false
24) CCCCCC/C=C\CCCCCCCc1cccc(O)c1C(=O)O	false
25) CC(C)=CCC/C(C)=C/CO	false
26) CC(C)c1cc2c(c(O)c1O)[C@@]1(C(=O)O)CCCC(C)(C)C1CC2 (stereo not given in full)	true
27) CC(=O)Oc1c(C)c(C)c2c(c1C)CCC(C)(CCCC(C)CCCC(C)CCCC(C)C)O2 (stereo not given)	false
28) COc1cc2c(cc1OC)C(C)NCC2 (stereo not given)	false
29) CC(=O)OCC1=C(C(=O)O)N2C(=O)[C@@H](NC(=O)CSc3ccncc3)[C@H]2SC1	false
30) C/C(=C\CO)CC[C@H](C)CCC[C@H](C)CCCC(C)C	true
31) CNC(=O)Oc1ccccc1OC(C)C	false
32) CC[C@H]1OC(=O)[C@H](C)[C@@H](O[C@H]2C[C@@](C)(OC)[C@@H](O)[C@H](C)O2)[C@H](C)[C@@H](O[C@@H]2O[C@H](C)C[C@H](N(C)C)[C@H]2O)[C@](C)(O)C[C@@H](C)/C(=N/OCOCCOC)[C@H](C)[C@@H](O)[C@]1(C)O	false
33) Cn1c(=O)c2c(ncn2CCCl)n(C)c1=O	false
34) CC(C)[C@@H]1CC[C@@H](C)CC1=O	false
35) CON	false
36) CC(NC(C)(C)C)C(=O)c1cccc(Cl)c1 (stereo not given)	false
37) O=C(Nc1ccc([N+](=O)[O-])cc1Cl)c1cc(Cl)ccc1O	false
38) CC(=O)CCCCn1c(=O)c2c(ncn2C)n(C)c1=O	false
39) COc1ccc(NS(=O)(=O)c2ccc(N)cc2)nn1	false
40) CN1CCCCC1c1ccc(-c2cccnc2)nc1 (stereo not given)	false
41) O=C1C=CC(=O)c2c(O)cccc21	false
42) C=C[C@H]1CN2CC[C@H]1C[C@H]2[C@H](O)c1ccnc2ccccc12	false
43) COC(=O)C[C@H]1C(C)(C)[C@H](O)[C@@H]2CC3=C4CC(O)O[C@@H](c5ccoc5)[C@]4(C)CCC3[C@@]1(C)C2=O (stereo not given in full)	false
44) Cc1cc(O)c2c(c1)C(=O)c1cc(O)cc(O)c1C2=O	true
45) Cn1c(=O)[nH]c2ncn(C)c2c1=O	false

---

Experiment Description: chemical genetic growth profiling, strain panel (AID 1159580);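 further: tested at 20 µM; growth read once vehicle control cultures reached saturation at 30 °C; 1 = growth at the plate median or of vehicle wells; lower values mean less growth of the strain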
Measurement Parameters: S. cerevisiae deletion strains, growth OD, locus YDR150W, strain NUM1
The campaign covered roughly 5,500 compounds. About 2,000 (36%) were called active. Another 18% or so got no clear call; they are omitted. Cut-off read from the data, not from the text of the source: active = normalized growth mostly below about 0.91 (no sharp cut-off); inconclusive = no clear call, values can overlap the other calls; inactive = mostly above about 0.92. This is one part of the list.
Outcomes: class 1 for active, class 0 for inactive

1) N[C@@H](C(=O)N[C@@H]1C(=O)N2C(C(=O)O)=C(Cl)CS[C@H]12)c1ccccc1	class 0
2) Cc1cc(NC(=O)Nc2cccc(C(F)(F)F)c2)n(C)n1	class 0
3) C/C(=C\CO)CC[C@H](C)CCC[C@H](C)CCCC(C)C	class 1
4) CCOC(=O)CC(=O)CSc1nnc(N)s1	class 0
5) O=C(N[C@@H](CO)[C@H](O)c1ccc([N+](=O)[O-])cc1)C(Cl)Cl	class 0
6) C[N+]1(C)CCCC(OC(=O)C(O)(c2ccccc2)c2ccccc2)C1 (configuration not stated)	class 0
7) CCCC(=O)Nc1ccc(OCC(O)CNC(C)C)c(C(C)=O)c1 (configuration not stated)	class 0

Recorded values, source PubChem BioAssay AID1159580.
